The measurements presented in this section are drawn from the supplement of paper PMC10307832.

Test system: NCI-H2087
Procedure text: relative viability (nuclei count vs DMSO), 5 days (fraction); higher = more cells survive
Condition summary: first compound 0.02 µM

Compound	relative viability
CC(=O)O[C@@]12CO[C@@H]1C[C@H](O)[C@@]1(C)C(=O)[C@H](O)C3=C(C)[C@@H](OC(=O)[C@H](O)[C@@H](NC(=O)OC(C)(C)C)c4ccccc4)C[C@@](O)([C@@H](OC(=O)c4ccccc4)[C@H]21)C3(C)C [Docetaxel] + C[C@]1(O)C[C@@H](c2nc(-c3ccc4ccc(-c5ccccc5)nc4c3)c3c(N)nccn32)C1 [Linsitinib] (partner 1 µM)	0.156
CC(=O)O[C@@]12CO[C@@H]1C[C@H](O)[C@@]1(C)C(=O)[C@H](O)C3=C(C)[C@@H](OC(=O)[C@H](O)[C@@H](NC(=O)OC(C)(C)C)c4ccccc4)C[C@@](O)([C@@H](OC(=O)c4ccccc4)[C@H]21)C3(C)C [Docetaxel] + N=C(N)NC(=N)NCCc1ccccc1 [Phenformin] (partner 250 µM)	0.0907
CC(=O)O[C@@]12CO[C@@H]1C[C@H](O)[C@@]1(C)C(=O)[C@H](O)C3=C(C)[C@@H](OC(=O)[C@H](O)[C@@H](NC(=O)OC(C)(C)C)c4ccccc4)C[C@@](O)([C@@H](OC(=O)c4ccccc4)[C@H]21)C3(C)C [Docetaxel] + O=C(c1cc(Cc2n[nH]c(=O)c3ccccc23)ccc1F)N1CCN(C(=O)C2CC2)CC1 [Olaparib] (partner 8 µM)	0.0944
CC(=O)O[C@@]12CO[C@@H]1C[C@H](O)[C@@]1(C)C(=O)[C@H](O)C3=C(C)[C@@H](OC(=O)[C@H](O)[C@@H](NC(=O)OC(C)(C)C)c4ccccc4)C[C@@](O)([C@@H](OC(=O)c4ccccc4)[C@H]21)C3(C)C [Docetaxel] + CC(C)C[C@H](NC(=O)[C@H](Cc1ccccc1)NC(=O)c1cnccn1)B(O)O [Bortezomib] (partner 0.002 µM)	0.142
CC(=O)O[C@@]12CO[C@@H]1C[C@H](O)[C@@]1(C)C(=O)[C@H](O)C3=C(C)[C@@H](OC(=O)[C@H](O)[C@@H](NC(=O)OC(C)(C)C)c4ccccc4)C[C@@](O)([C@@H](OC(=O)c4ccccc4)[C@H]21)C3(C)C [Docetaxel] + CS(=O)(=O)CCNCc1ccc(-c2ccc3ncnc(Nc4ccc(OCc5cccc(F)c5)c(Cl)c4)c3c2)o1 [Lapatinib] (partner 2 µM)	0.137
